- method: Clearance in rat at 1 mg/kg, iv and 5 mg/kg, po
- Assay type: ADME, organism-based
- run_conditions: in vivo
Tag: criterion met if measured clearance is not below 20 mL/min/kg, criterion not met if it is.

The examples below pair each entry with its known result.
1) O=C(NOCCO)c1c(Nc2ccc(I)cc2F)c(F)c(=O)n2c1CCC2 ... criterion not met
2) C#Cc1ccc(Nc2c(C(=O)NOCCO)c3c(n2C)C(=O)CCC3)c(F)c1 ... criterion not met
3) Cc1c(Nc2ccc(I)cc2F)c(C(=O)NOCCO)c2n(c1=O)CCC2 ... criterion met
4) C#Cc1ccc(Nc2c(C(=O)NOCCO)c3c(n2C)C(=O)CC3)c(F)c1 ... criterion not met

Here is the next item to consider.
Could you please find out whether `Cn1c(Nc2ccc(I)cc2F)c(C(=O)NOC[C@H](O)CO)c2c1C(=O)CCC2` has clearance that meets 20 mL/min/kg or exceeds it?
criterion met

* * *

- target: RAC-gamma serine/threonine-protein kinase (Homo sapiens) (UniProt Q9Y243)
- Sequence (Q9Y243 whole entry): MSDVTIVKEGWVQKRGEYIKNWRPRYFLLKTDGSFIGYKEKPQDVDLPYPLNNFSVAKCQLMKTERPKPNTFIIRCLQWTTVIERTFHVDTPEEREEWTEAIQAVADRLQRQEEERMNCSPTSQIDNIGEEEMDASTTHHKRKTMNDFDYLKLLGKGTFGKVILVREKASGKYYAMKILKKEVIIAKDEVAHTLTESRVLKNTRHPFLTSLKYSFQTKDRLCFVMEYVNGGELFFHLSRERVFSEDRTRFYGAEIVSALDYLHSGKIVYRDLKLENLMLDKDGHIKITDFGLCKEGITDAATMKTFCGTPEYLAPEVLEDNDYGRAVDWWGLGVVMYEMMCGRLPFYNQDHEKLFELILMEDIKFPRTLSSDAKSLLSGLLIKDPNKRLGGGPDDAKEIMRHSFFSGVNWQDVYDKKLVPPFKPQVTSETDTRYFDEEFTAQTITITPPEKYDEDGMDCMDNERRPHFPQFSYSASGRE
- method: Inhibition of AKT3 at 10 uM
The source made the active and inactive calls. The calls are words filed in the database; no cut-off is given here.
parameter: inhibition

Field: example entries. Status: answers known.
1. Cn1c(Nc2ccc(I)cc2F)c(C(=O)NOC[C@H](O)CO)c2c1C(=O)CCC2 ... inactive
2. C#Cc1ccc(Nc2c(C(=O)NOCCO)c3c(n2C)C(=O)CCC3)c(F)c1 ... inactive
3. C#Cc1ccc(Nc2c(C(=O)NOCCO)c3c(n2C)C(=O)CC3)c(F)c1 ... inactive
4. Cc1c(Nc2ccc(I)cc2F)c(C(=O)NOCCO)c2n(c1=O)CCC2 ... inactive
5. O=C(NOCCO)c1c(Nc2ccc(I)cc2F)c(F)c(=O)n2c1CCC2 ... inactive

# input compound: `O=C(NOC[C@@H](O)CO)c1c(Nc2ccc(I)cc2F)c(F)c(=O)n2c1CCC2` ; wanted: its inhibition
inactive

* * *

- method: Half life in human liver microsomes
- Type: ADME, Microsome
Task for the reader: assign each of the following molecules its reported half-life.
Numbers only, in h.

1. Cn1c(Nc2ccc(I)cc2F)c(C(=O)NOC[C@H](O)CO)c2c1C(=O)CC2 ... 1.43
2. C#Cc1ccc(Nc2c(C(=O)NOCCO)c3c(n2C)C(=O)CCC3)c(F)c1 ... 0.567
3. Cc1c(Nc2ccc(I)cc2F)c(C(=O)NOCCO)c2n(c1=O)CCC2 ... 1.65

List half-life for every entry below, keeping the order given.
1. Cn1c(Nc2ccc(I)cc2F)c(C(=O)NOCCO)c2c1C(=O)CCC2
2. Cn1c(Nc2ccc(I)cc2F)c(C(=O)NOC[C@@H](O)CO)c2c1C(=O)CC2
3. Cn1c(Nc2ccc(I)cc2F)c(C(=O)NOCCO)c2c1C(=O)CC2
4. Cn1c(Nc2ccc(I)cc2F)c(C(=O)NOC[C@H](O)CO)c2c1C(=O)CCC2

1: 0.0617; 2: 1.07; 3: 0.167; 4: 0.6

List half-life for every entry below, keeping the order given.
1. Cn1c(Nc2ccc(Br)cc2F)c(C(=O)NOCCO)c2c1C(=O)CCC2
2. Cn1c(Nc2ccc(I)cc2F)c(C(=O)NOC[C@@H](O)CO)c2c1C(=O)CCC2
3. Cn1c(Nc2ccc(Br)cc2F)c(C(=O)NOC[C@@H](O)CO)c2c1C(=O)CCC2
4. C#Cc1ccc(Nc2c(C(=O)NOCCO)c3n(c(=O)c2F)CCC3)c(F)c1

0.417
0.367
1.27
2.13

* * *

- target: Insulin receptor (Homo sapiens) (UniProt P06213)
- Sequence (P06213 28-758 limits assumed): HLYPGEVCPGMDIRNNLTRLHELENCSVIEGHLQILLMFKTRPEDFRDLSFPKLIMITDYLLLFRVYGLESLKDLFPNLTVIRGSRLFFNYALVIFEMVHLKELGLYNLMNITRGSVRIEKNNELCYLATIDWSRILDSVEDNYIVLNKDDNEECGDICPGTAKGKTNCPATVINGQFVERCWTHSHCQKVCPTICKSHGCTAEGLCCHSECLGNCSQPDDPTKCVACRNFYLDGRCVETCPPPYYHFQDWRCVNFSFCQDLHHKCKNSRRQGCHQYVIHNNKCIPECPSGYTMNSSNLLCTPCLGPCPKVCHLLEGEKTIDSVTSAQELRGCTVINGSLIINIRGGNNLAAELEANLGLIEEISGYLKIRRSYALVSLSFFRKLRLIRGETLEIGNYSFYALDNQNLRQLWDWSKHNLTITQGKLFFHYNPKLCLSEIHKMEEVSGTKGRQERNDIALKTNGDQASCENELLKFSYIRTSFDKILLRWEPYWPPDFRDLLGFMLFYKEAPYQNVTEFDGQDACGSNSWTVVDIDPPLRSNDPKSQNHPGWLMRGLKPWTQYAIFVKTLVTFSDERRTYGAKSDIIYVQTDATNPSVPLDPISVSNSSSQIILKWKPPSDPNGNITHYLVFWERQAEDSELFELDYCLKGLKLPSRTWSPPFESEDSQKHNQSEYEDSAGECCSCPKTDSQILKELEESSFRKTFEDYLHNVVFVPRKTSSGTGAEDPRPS
- Sequence (P06213 763-1382 limits assumed): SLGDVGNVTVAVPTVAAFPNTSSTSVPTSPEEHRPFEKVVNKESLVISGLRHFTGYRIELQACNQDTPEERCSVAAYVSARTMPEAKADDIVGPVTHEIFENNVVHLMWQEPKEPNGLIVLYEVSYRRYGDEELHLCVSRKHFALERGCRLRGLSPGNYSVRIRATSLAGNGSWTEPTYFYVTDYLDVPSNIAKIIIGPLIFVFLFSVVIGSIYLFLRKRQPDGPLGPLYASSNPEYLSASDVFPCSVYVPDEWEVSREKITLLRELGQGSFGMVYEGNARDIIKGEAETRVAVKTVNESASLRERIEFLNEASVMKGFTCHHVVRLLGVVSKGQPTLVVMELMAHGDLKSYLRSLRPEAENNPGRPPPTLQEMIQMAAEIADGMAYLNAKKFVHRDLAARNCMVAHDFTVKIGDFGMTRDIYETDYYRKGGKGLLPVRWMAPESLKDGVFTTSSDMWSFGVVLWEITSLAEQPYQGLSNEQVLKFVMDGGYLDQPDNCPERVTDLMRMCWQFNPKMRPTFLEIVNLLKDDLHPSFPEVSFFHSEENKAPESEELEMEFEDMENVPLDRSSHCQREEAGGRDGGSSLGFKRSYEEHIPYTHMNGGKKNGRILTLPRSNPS
- method: Inhibition of IR at 10 uM
Activity calls are given as the source filed them. No cut-off for these calls is given here.
parameter: inhibition

Field: example entries. Status: answers known.
1) C#Cc1ccc(Nc2c(C(=O)NOCCO)c3c(n2C)C(=O)CC3)c(F)c1 ... inactive
2) O=C(NOC[C@@H](O)CO)c1c(Nc2ccc(I)cc2F)c(F)c(=O)n2c1CCC2 ... inactive
3) O=C(NOCCO)c1c(Nc2ccc(I)cc2F)c(F)c(=O)n2c1CCC2 ... inactive
4) Cn1c(Nc2ccc(I)cc2F)c(C(=O)NOC[C@H](O)CO)c2c1C(=O)CCC2 ... inactive

List inhibition for every entry below, keeping the order given.
1. Cc1c(Nc2ccc(I)cc2F)c(C(=O)NOCCO)c2n(c1=O)CCC2
2. C#Cc1ccc(Nc2c(C(=O)NOCCO)c3c(n2C)C(=O)CCC3)c(F)c1

["inactive", "inactive"]

* * *

Task for the reader: assign each of the following compounds its reported Vd.
- method: Volume of distribution at steady state in rat at 1 mg/kg, iv and 5 mg/kg, po
- Assay type: ADME, organism-based
- run_conditions: in vivo, read-out: Vdss
Answers are plain numbers, in L/kg.

Field: example entries. Status: answers known.
1. C#Cc1ccc(Nc2c(C(=O)NOCCO)c3c(n2C)C(=O)CCC3)c(F)c1 ... 0.596
2. Cc1c(Nc2ccc(I)cc2F)c(C(=O)NOCCO)c2n(c1=O)CCC2 ... 0.971
3. O=C(NOCCO)c1c(Nc2ccc(I)cc2F)c(F)c(=O)n2c1CCC2 ... 0.745
4. C#Cc1ccc(Nc2c(C(=O)NOCCO)c3c(n2C)C(=O)CC3)c(F)c1 ... 1.19

Now for a further compound.
# input compound: `Cn1c(Nc2ccc(I)cc2F)c(C(=O)NOC[C@H](O)CO)c2c1C(=O)CCC2` ; wanted: its Vd
1.16

* * *

Task for the reader: assign each of the following compounds its reported IC50.
- target: Dual specificity mitogen-activated protein kinase kinase 1 (Homo sapiens, UniProt Q02750)
- Sequence (Q02750 whole entry): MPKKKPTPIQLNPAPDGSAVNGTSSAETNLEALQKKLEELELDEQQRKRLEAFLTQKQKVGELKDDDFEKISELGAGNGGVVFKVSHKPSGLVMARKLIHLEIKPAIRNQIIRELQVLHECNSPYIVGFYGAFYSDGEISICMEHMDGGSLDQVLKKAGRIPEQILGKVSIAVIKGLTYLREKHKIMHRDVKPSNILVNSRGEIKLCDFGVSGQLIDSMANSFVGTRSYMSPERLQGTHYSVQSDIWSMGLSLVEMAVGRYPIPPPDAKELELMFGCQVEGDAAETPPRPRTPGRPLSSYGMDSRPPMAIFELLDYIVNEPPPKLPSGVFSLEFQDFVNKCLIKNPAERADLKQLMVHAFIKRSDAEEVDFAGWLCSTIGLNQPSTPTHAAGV
- method: Inhibition of MEK1-mediated ERK1 phosphorylation using IPTTPITTYFFFK-5FAM-COOH as substrate by fluorescent polarization assay
One number for each entry, in nM.

1) Cc1c(Nc2ccc(I)cc2F)c(C(=O)NOCCO)c2n(c1=O)CCC2 ... 38
2) Cn1c(Nc2ccc(Br)cc2F)c(C(=O)NOCCO)c2c1C(=O)CCC2 ... 18
3) O=C(NOCCO)c1c(Nc2ccc(I)cc2F)c(Cl)c(=O)n2c1CCC2 ... 109
4) Cn1c(Nc2ccc(Br)cc2F)c(C(=O)NOC[C@@H](O)CO)c2c1C(=O)CCC2 ... 76
5) C#Cc1ccc(Nc2c(C(=O)NOCCO)c3c(n2C)C(=O)CCC3)c(F)c1 ... 32

List IC50 for every entry below, keeping the order given.
1. O=C(NOCCO)c1c(Nc2ccc(I)cc2F)c(F)c(=O)n2c1CCCC2
2. Cn1c(Nc2ccc(I)cc2F)c(C(=O)NOC[C@@H](O)CO)c2c1C(=O)CCC2
3. O=C(NOCCO)c1c(Nc2ccc(I)cc2F)c(F)c(=O)n2c1CCC2

[57, 17, 25]

* * *

- method: Oral bioavailability in rat at 5 mg/kg
- Assay type: ADME, organism-based
- run_conditions: in vivo
Task for the reader: assign each of the following compounds its reported bioavailability.
Answers are plain numbers, in %.

1) O=C(NOCCO)c1c(Nc2ccc(I)cc2F)c(F)c(=O)n2c1CCC2 ... 21

List bioavailability for every entry below, keeping the order given.
1. Cn1c(Nc2ccc(I)cc2F)c(C(=O)NOC[C@H](O)CO)c2c1C(=O)CCC2
2. C#Cc1ccc(Nc2c(C(=O)NOCCO)c3c(n2C)C(=O)CC3)c(F)c1
3. Cc1c(Nc2ccc(I)cc2F)c(C(=O)NOCCO)c2n(c1=O)CCC2
4. C#Cc1ccc(Nc2c(C(=O)NOCCO)c3c(n2C)C(=O)CCC3)c(F)c1

[12, 51, 29, 61]

* * *

Task for the reader: assign each of the following compounds its reported IC50.
- target: Dual specificity mitogen-activated protein kinase kinase 1 (Homo sapiens, UniProt Q02750)
- method: Inhibition of MEK1-mediated ERK1 phosphorylation using IPTTPITTYFFFK-5FAM-COOH as substrate by fluorescent polarization assay
Answers are plain numbers, in nM.

Field: example entries. Status: answers known.
1) Cn1c(Nc2ccc(I)cc2F)c(C(=O)NOC[C@H](O)CO)c2c1C(=O)CC2 ... 54
2) Cn1c(Nc2ccc(I)cc2F)c(C(=O)NOC[C@H](O)CO)c2c1C(=O)CCC2 ... 20
3) O=C(NOC[C@@H](O)CO)c1c(Nc2ccc(I)cc2F)c(F)c(=O)n2c1CCC2 ... 94
4) Cn1c(Nc2ccc(I)cc2F)c(C(=O)NOC[C@@H](O)CO)c2c1C(=O)CC2 ... 11
5) C#Cc1ccc(Nc2c(C(=O)NOCCO)c3n(c(=O)c2F)CCC3)c(F)c1 ... 69

List IC50 for every entry below, keeping the order given.
1. Cn1c(Nc2ccc(Br)cc2F)c(C(=O)NOC[C@H](O)CO)c2c1C(=O)CCC2
2. C#Cc1ccc(Nc2c(C(=O)NOCCO)c3c(n2C)C(=O)CC3)c(F)c1
3. O=C(NOC[C@H](O)CO)c1c(Nc2ccc(I)cc2F)c(F)c(=O)n2c1CCC2
4. Cn1c(Nc2ccc(I)cc2F)c(C(=O)NOCCO)c2c1C(=O)CCC2
5. C#Cc1ccc(Nc2c(C(=O)NOC[C@H](O)CO)c3c(n2C)C(=O)CCC3)c(F)c1

1. 52
2. 36
3. 39
4. 14
5. 41
